Target: D(3) dopamine receptor (Homo sapiens, UniProt P35462)
Sequence (P35462 whole entry): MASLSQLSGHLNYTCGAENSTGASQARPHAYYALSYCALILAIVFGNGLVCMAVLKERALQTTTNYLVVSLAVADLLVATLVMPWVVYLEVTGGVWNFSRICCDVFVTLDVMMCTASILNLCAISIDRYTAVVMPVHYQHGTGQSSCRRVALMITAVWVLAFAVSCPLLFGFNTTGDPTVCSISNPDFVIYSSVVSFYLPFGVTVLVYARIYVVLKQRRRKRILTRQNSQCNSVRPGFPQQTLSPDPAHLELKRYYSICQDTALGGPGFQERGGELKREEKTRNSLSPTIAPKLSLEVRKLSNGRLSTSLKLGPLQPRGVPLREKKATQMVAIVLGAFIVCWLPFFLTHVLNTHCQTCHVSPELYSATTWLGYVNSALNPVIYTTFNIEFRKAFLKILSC
Experiment: Agonist activity at human D3 receptor transfected in HEK293T cells by BRET based G0 activation assay
Format: cell-based, HEK-293T
Listed here: items and their measured EC50.
API: value field is a number in nM; no unit string.

TEST_SMILES: CCCN(C)[C@@H]1Cc2cccc3[nH]c(=O)n(c23)C1
UNIT_OF_MEASURE: nM
MEASURED_VALUE: 30.7
--
TEST_SMILES: N[C@@H]1Cc2cccc3[nH]c(=O)n(c23)C1
UNIT_OF_MEASURE: nM
MEASURED_VALUE: 1890
--
TEST_SMILES: CCCN[C@@H]1Cc2cccc3c2n(c(=O)n3CCC)C1
UNIT_OF_MEASURE: nM
MEASURED_VALUE: 1420
--
TEST_SMILES: CCCn1c(=O)n2c3c(cccc31)C[C@@H](NC)C2
UNIT_OF_MEASURE: nM
MEASURED_VALUE: 53.7
--
TEST_SMILES: CCCN(CCC)[C@@H]1Cc2cccc3[nH]c(=O)n(c23)C1
UNIT_OF_MEASURE: nM
MEASURED_VALUE: 21.8
--
TEST_SMILES: CCCCn1c(=O)n2c3c(cccc31)C[C@@H](NC)C2
UNIT_OF_MEASURE: nM
MEASURED_VALUE: 25.6
--
TEST_SMILES: CN[C@@H]1Cc2cccc3[nH]c(=O)n(c23)C1
UNIT_OF_MEASURE: nM
MEASURED_VALUE: 186
--
TEST_SMILES: CN(CCCCNC(=O)c1ccc2c(c1)Cc1ccccc1-2)[C@@H]1Cc2cccc3[nH]c(=O)n(c23)C1
UNIT_OF_MEASURE: nM
MEASURED_VALUE: 125
--
TEST_SMILES: CCCN[C@@H]1Cc2cccc3nc(O)n(c23)C1
UNIT_OF_MEASURE: nM
MEASURED_VALUE: 18.3
--
TEST_SMILES: CCCN(CCC)[C@@H]1Cc2cccc3c2n(c(=O)n3CCC)C1
UNIT_OF_MEASURE: nM
MEASURED_VALUE: 51.9

Now let's try a different one.
## Task For "CN(CCCCNC(=O)c1cc2ccccc2[nH]1)[C@@H]1Cc2cccc3[nH]c(=O)n(c23)C1" , write its EC50.
## Result 94.3

---

Target: D(2) dopamine receptor (Homo sapiens)
Sequence (P14416 whole entry): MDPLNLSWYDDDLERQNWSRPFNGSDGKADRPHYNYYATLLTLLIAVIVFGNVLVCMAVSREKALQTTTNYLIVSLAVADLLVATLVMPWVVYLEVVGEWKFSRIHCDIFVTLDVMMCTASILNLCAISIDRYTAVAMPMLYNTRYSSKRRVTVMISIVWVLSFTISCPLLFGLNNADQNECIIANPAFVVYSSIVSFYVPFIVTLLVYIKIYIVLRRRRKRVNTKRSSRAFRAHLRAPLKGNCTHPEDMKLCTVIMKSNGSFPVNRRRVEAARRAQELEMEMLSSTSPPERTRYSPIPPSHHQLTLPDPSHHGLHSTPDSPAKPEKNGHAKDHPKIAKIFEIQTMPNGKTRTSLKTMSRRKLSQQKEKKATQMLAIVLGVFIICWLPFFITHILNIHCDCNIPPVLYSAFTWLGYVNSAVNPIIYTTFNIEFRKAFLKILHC
Test: Agonist activity at human D2 receptor transfected in HEK293T cells by BRET based G0 activation assay
Format: cell-based, HEK-293T
One threshold, 30 nM, splits the recorded EC50 values: lower ones are 1 (yes), equal or higher ones are 0 (no).

TEST_SMILES: CCCN(CCC)[C@@H]1Cc2cccc3c2n(c(=O)n3CCC)C1
SYSTEM_NAME: D(2) dopamine receptor (Homo sapiens)
DISCRETE_LABEL: 0 (no)
--
TEST_SMILES: CCCN(C)[C@@H]1Cc2cccc3[nH]c(=O)n(c23)C1
SYSTEM_NAME: D(2) dopamine receptor (Homo sapiens)
DISCRETE_LABEL: 1 (yes)
--
TEST_SMILES: CCCN(CCC)[C@@H]1Cc2cccc3[nH]c(=O)n(c23)C1
SYSTEM_NAME: D(2) dopamine receptor (Homo sapiens)
DISCRETE_LABEL: 1 (yes)

## Task # check: EC50 < 30 nM for "N[C@@H]1Cc2cccc3[nH]c(=O)n(c23)C1"
## Result 0 (no)

## Task Bench note: check whether "CCCN[C@@H]1Cc2cccc3c2n(c(=O)n3CCC)C1" shows EC50 below 30 nM
## Result 0 (no)

## Task Is EC50 of "CCCn1c(=O)n2c3c(cccc31)C[C@@H](NC)C2" strictly below 30 nM?
## Result 0 (no)

## Task EC50 under 30 nM? Item: "CN(CCCCNC(=O)c1ccc2c(c1)Cc1ccccc1-2)[C@@H]1Cc2cccc3[nH]c(=O)n(c23)C1"
## Result 0 (no)
